Target Of Assay: human PAD4 (hPAD4) (Homo sapiens, UniProt Q9UM07)
Sequence (Q9UM07 whole entry): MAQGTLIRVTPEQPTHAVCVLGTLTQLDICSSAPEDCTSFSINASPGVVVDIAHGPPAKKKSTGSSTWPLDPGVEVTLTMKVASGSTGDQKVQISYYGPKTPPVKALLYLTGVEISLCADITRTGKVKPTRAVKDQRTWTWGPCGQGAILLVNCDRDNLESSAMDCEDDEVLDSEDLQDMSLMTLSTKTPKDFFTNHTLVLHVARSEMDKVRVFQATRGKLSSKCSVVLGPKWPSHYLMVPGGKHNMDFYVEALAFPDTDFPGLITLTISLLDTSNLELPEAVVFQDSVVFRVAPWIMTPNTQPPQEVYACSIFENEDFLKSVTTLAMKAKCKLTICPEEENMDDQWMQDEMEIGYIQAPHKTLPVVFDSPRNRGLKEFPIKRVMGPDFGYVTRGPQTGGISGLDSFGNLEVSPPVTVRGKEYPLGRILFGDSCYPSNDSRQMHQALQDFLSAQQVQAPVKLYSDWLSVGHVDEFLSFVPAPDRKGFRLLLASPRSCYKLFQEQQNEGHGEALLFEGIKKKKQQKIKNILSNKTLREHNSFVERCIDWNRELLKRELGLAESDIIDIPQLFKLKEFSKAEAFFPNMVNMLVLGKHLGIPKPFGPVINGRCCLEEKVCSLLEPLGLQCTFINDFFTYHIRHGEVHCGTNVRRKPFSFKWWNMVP
Assay Comment: RFMS human PAD4 functional assay (rapid-fire mass spectrum)
Type: biochemical
Assay Conditions: 5 nM hPAD4 enzyme, 250 μM BAEE, 50 μM Calcium; 30 min preincubation, 90 min reaction at 37° C.
Quantity Measured: IC50 (µM)

[
  {
    "Molecule": "CCS(=O)(=O)N1CC(Cn2c(-c3cc4cccnc4n3CC3CC3)nc3cc(C(=O)N4CC5CCC4[C@@H]5N)cc(OC)c32)C1 (stereo partly drawn)",
    "Recorded Number": 0.31
  },
  {
    "Molecule": "COc1cc(C(=O)N2C[C@H]3CC[C@@H]2[C@@H]3N)cc2nc(-c3cc4ccccc4n3C)n(CC3CN(c4ncccn4)C3)c12",
    "Recorded Number": 0.122
  },
  {
    "Molecule": "COc1cc(C(=O)N2CC3CCC2[C@@H]3N)cc2nc(-c3cc4cccnc4n3CC3CC3)n(CC3CN(C(=O)[C@H]4C[C@@H]4C)C3)c12 (stereo partly drawn)",
    "Recorded Number": 0.032
  },
  {
    "Molecule": "COc1cc(C(=O)N2C[C@H]3CC[C@@H]2[C@@H]3N)cc2nc(-c3cc4cccnc4n3CC3CC3)n(C3CN(C(=O)c4cnc(NCC(C)(C)O)nc4)C3)c12",
    "Recorded Number": 0.316
  },
  {
    "Molecule": "COc1cc(C(=O)N2CC3CCC2[C@@H]3N)cc2nc(-c3cc4cccnc4n3CC3CC3)n(C3CCN(c4ccnc(C#N)n4)CC3)c12 (stereo partly drawn)",
    "Recorded Number": 0.54
  }
]

[A] COc1cc(C(=O)N2C[C@H]3CC[C@@H]2[C@@H]3N)cc2nc(-c3cc4cccnc4n3CC3CC3)n(CC3CN(c4ncncc4C#N)C3)c12
[B] COc1cc(C(=O)N2C[C@H]3CC[C@@H]2[C@@H]3N)cc2nc(-c3cc4cccnc4n3CC3CC3)n(C3CN(c4ncccn4)C3)c12
Please let me know which one, A or B , has a lower measured IC50 value. Choose, then provide that item's label. A

[A] COc1cc(C(=O)N2CC3CCC2[C@@H]3N)cc2nc(-c3cc4ccccc4n3CC3CC3)n(Cc3cnn(-c4ccc(O)nc4)c3)c12 (stereo partly drawn)
[B] COc1cc(C(=O)N2C[C@H]3CC[C@@H]2[C@@H]3N)cc2nc(-c3cc4cccnc4n3C)n(CC3CN(c4nccnc4C#N)C3)c12
Among A and B , which shows a numerically higher IC50 result? Pick one; state its label. B
(B: 0.094 µM, A: 0.057 µM)

[I] COc1cc(C(=O)N2CC3CCC2[C@@H]3N)cc2nc(-c3cc4cccnc4n3CC3CC3)n(Cc3cnn(-c4ccc[n+]([O-])c4)c3)c12 (stereo partly drawn)
[II] N[C@@H]1[C@@H]2CC[C@H]1N(C(=O)c1cc(Cl)c3c(c1)nc(-c1cc4ccccc4n1CC1CC1)n3CC1CN(C(=O)c3ccncc3)C1)C2
Endpoint returns the identifier whose IC50 is numerically larger, either I or II . # reply format: chosen label I

[A] COc1cc(C(=O)N2C[C@H]3CC[C@@H]2[C@@H]3N)cc2nc(-c3cc4ccccc4n3C)n(CC3CN(c4cncc(C#N)c4)C3)c12
[B] COc1cc(C(=O)N2CC3CCC2[C@@H]3N)cc2nc(-c3cc4cccnc4n3CC3CC3)n(CC3CN(S(=O)(=O)c4ccccc4)C3)c12 (stereo partly drawn)
[C] COc1cc(C(=O)N2C[C@H]3CC[C@@H]2[C@@H]3N)cc2nc(-c3cc4ccc(Cl)cc4n3CC3CC3)n(CC3CN(c4ccnc(C(N)=O)n4)C3)c12
[D] COc1cc(C(=O)N2C[C@H]3CC[C@@H]2[C@@H]3N)cc2nc(-c3cc4cccnc4n3CC3CC3)n(C[C@H]3CCN(c4ccnc(C#N)n4)C3)c12
hey, can you rank those molecules up there by IC50? biggest number first please In your reply, arrange the labels in the requested order. B, A, D, C
(B: 0.197 µM, A: 0.06 µM, D: 0.035 µM, C: 0.018 µM)
